Attribution: patent US20240083857A1

experimental system: K-Ras^G12C : hSOS1 interaction (Homo sapiens, UniProt Q07889)
protocol details: Biochemical assay 1: K-Ras^G12C interaction assay with hSOS1 (HTRF)
Format: binding
condition notes: read-out: Assay 1 (KRAS-SOS Interaction) activity expressed as IC50
outcome measure: IC50

What value of measured IC50 is listed for COc1cc2nc(C)nc(NC(C)c3ccc4c(c3)OCO4)c2cc1OC (centres unmarked) ?
2720 nM

Look at this compound and give its reported IC50. COc1cc2nc(C)nc(N[C@H](C)c3cccc(C4CC4)c3)c2cc1OC
229 nM

Looking for the measured IC50 of COc1cc2nc(C)nc(N[C@H](C)c3cccc(-c4ccc5c(c4)CCO5)c3)c2cc1OC , can you help?
1350 nM

For COc1cc2nc(C)nc(N[C@@H](C)c3ccc(-c4cccc(S(C)(=O)=O)c4)s3)c2cc1OC (racemic) , what is its reported IC50?
6880 nM

Which value of IC50 has been reported for COc1cc2nc(C)nc(NC(C)c3ccc(-c4ccc(C(N)=O)cc4)s3)c2cc1OC (centres unmarked) in the records?
1830 nM
